Test system: NCI-H460 lung
Assay comment: NCI tumour cell line growth inhibition, 48 h
The compounds listed here are annotated with their TGI.

Identify TGI associated with the compound `CN(C)c1ccc2c(c1)Sc1cc(N(C)C)ccc1N2C(=O)c1ccccc1`
> 100 µM

Supply reported TGI belonging to this compound: C=C1COC(/C=C(\C)CC/C=C(\C)CCl)C1 (stereo not given)
> 100 µM

Given `CCOC(=O)c1sc2c(c1OC(=O)c1cccs1)c(=O)n(-c1ccccc1)c(=S)n2-c1ccccc1` , respond with its TGI.
12.4 µM

State, in one line, measured TGI of `CN(C)CCCN1c2ccccc2CCc2ccc(Cl)cc21`
19.1 µM
